Target: UniProt P37288
Sequence (P37288 whole entry): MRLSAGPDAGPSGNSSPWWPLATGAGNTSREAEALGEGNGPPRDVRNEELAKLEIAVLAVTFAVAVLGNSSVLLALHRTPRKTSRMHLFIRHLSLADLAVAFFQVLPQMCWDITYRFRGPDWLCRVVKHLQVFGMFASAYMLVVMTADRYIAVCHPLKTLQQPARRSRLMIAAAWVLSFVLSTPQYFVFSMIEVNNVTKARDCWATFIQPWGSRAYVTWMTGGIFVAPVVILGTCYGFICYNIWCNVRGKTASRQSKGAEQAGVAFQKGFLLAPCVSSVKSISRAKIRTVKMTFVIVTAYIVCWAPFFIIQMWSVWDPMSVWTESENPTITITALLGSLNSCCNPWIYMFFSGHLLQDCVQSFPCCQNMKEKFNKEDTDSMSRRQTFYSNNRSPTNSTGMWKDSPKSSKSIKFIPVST
Assay: human V1a receptor binding studies (3H-Vasopressin, SPA beads)
Conditions: membranes of HEK293 cells transiently transfected with human V1a receptor, Ki by Cheng-Prussoff
Parameter threshold = 8. Response is true when pKi hV1a meets or exceeds it, else false.

Decide: pKi hV1a of O=C1N=C(N2CCC3(CC2)OCc2ccccc23)SC1=C(C1CCCCC1)C1CCCCC1 [Example 125] >= 8? false

Is pKi hV1a for C/C(=C1/SC(N2CCC3(CC2)OCc2ccncc23)=NC1=O)c1ccc(Cl)cc1 [Example 4] at or above 8? true

Answer whether pKi hV1a of C/C(CN)=C1\SC(N2CCC3(CC2)OCc2ccccc23)=NC1=O.Cl [Example 66] is greater than or equal to 8. false

For this compound, is measured pKi hV1a 8 or higher? C/C(=C1\SC(N2CCC3(CC2)OCc2ccccc23)=NC1=O)c1ccc(C)nc1 [Example 153] true

Would you say C/C(=C1/SC(N2CCC3(CC2)OCc2ccccc23)=NC1=O)c1ccnc(C)c1 [Example 77] shows pKi hV1a at minimum 8? false

# check: pKi hV1a of C/C(=C1\SC(N2CCC3(CC2)OC(=O)c2ccccc23)=NC1=O)c1ccc(C)nc1 [Example 136] is greater than or equal to 8 false

State whether the measured pKi hV1a reaches 8, counting equality as reaching it, for O=C1N=C(N2CCC3(CC2)OCc2ccccc23)S/C1=C1/CCCc2ccccc21 [Example 45] true

Item CC(C)(C)OC(=O)NC/C(=C1/SC(N2CCC3(CC2)OCc2ccccc23)=NC1=O)c1ccccc1 [Example 159] with pKi hV1a of 8 or above? true

Record C=C/C(C)=C1\SC(N2CCC3(CC2)OCc2ccccc23)=NC1=O [Example 70] ; criterion: pKi hV1a no lower than 8. Met? false

Determine whether this compound has pKi hV1a no lower than 8: C/C(=C1/SC(N2CCC3(CC2)OCc2ccccc23)=NC1=O)c1oc(C)nc1C [Example 86] true

Can O=C1N=C(N2CCC3(CC2)OCc2ccccc23)S/C1=C1/CCCc2cc(Cl)ccc21 [Example 11] be said to have pKi hV1a at or above 8? true

Reported pKi hV1a at or above 8? CC/C(=C1/SC(N2CCC3(CC2)OCc2ccccc23)=NC1=O)c1ccc(Cl)nc1 [Example 133] true
